- assay.system: rat pituitary cells (Rattus norvegicus)
- Construct: endogenous in cells; host or cells: rat pituitary cells
- protocol.details: LH inhibition from rat pituitary cells, antagonist potency (pA2)
- Type: cell-based
- condition.parameters: negative log of antagonist concentration shifting the leuprolide response curve to two-fold higher concentration, Table 2
// reported Kb for each item listed
Supply the numeric figure in nM, leaving out any unit text.

compound: CC[C@H]1OC(=O)[C@H](C)[C@@H](O[C@H]2C[C@@](C)(OC)[C@@H](O)[C@H](C)O2)[C@H](C)[C@@H](O[C@@H]2O[C@H](C)C[C@H](N(C)C3CCCC3)[C@H]2O)[C@](C)(OC)C[C@@H](C)C(=O)[C@H](C)[C@H]2N(CCc3ccc(F)c(Cl)c3)C(=O)O[C@]12C [Example 26]
metric.name: Kb
readout.value: 2.19

Test item CC[C@H]1OC(=O)[C@H](C)[C@@H](O[C@H]2C[C@@](C)(OC)[C@@H](O)[C@H](C)O2)[C@H](C)[C@@H](O[C@@H]2O[C@H](C)C[C@H](N(C)C3CCC3)[C@H]2O)[C@](C)(OC)C[C@@H](C)C(=O)[C@H](C)[C@H]2N(CCc3ccc(F)c(Cl)c3)C(=O)O[C@]12C [Example 27] ; rat pituitary cells (Rattus norvegicus); reported Kb was 3.8

Test item CCCN(C)[C@H]1C[C@@H](C)O[C@@H](O[C@@H]2[C@@H](C)[C@H](O[C@H]3C[C@@](C)(OC)[C@@H](O)[C@H](C)O3)[C@@H](C)C(=O)O[C@H](CC)[C@@]3(C)OC(=O)N(CCc4ccc(F)c(F)c4)[C@@H]3[C@@H](C)C(=O)[C@H](C)C[C@@]2(C)OC)[C@@H]1O [Example 32] ; rat pituitary cells (Rattus norvegicus); reported Kb was 26.3

Test item CC[C@H]1OC(=O)[C@H](C)[C@@H](O[C@H]2C[C@@](C)(OC)[C@@H](O)[C@H](C)O2)[C@H](C)[C@@H](O[C@@H]2O[C@H](C)C[C@H](N(C)C3CCCC3)[C@H]2O)[C@](C)(OC)C[C@@H](C)C(=O)[C@H](C)[C@H]2N(CCc3ccc(F)c(F)c3)C(=O)O[C@]12C [Example 31] ; rat pituitary cells (Rattus norvegicus); reported Kb was 5.75

Test item CC[C@H]1OC(=O)[C@H](C)[C@@H](O[C@H]2C[C@@](C)(OC)[C@@H](O)[C@H](C)O2)[C@H](C)[C@@H](O[C@@H]2O[C@H](C)C[C@H](N(C)C(C)C)[C@H]2O)[C@](C)(OC)C[C@@H](C)C(=O)[C@H](C)[C@H]2N(CCc3ccc(Cl)cc3)C(=O)O[C@]12C [Example 22] ; rat pituitary cells (Rattus norvegicus); reported Kb was 30.2

Test item CC[C@H]1OC(=O)[C@H](C)[C@@H](O[C@H]2C[C@@](C)(OC)[C@@H](O)[C@H](C)O2)[C@H](C)[C@@H](O[C@@H]2O[C@H](C)C[C@H](N(C)C(C)C)[C@H]2O)[C@](C)(OC)C[C@@H](C)C(=O)[C@H](C)[C@H]2N(CCc3ccc(F)c(Cl)c3)C(=O)O[C@]12C [Example 28] ; rat pituitary cells (Rattus norvegicus); reported Kb was 3.02

Test item CC[C@H]1OC(=O)[C@H](C)[C@@H](O[C@H]2C[C@@](C)(OC)[C@@H](O)[C@H](C)O2)[C@H](C)[C@@H](O[C@@H]2O[C@H](C)C[C@H](N(C)CC3CC3)[C@H]2O)[C@](C)(OC)C[C@@H](C)C(=O)[C@H](C)[C@H]2N(CCc3ccc(F)c(F)c3)C(=O)O[C@]12C [Example 33] ; rat pituitary cells (Rattus norvegicus); reported Kb was 3.98

Test item CCCN(C)[C@H]1C[C@@H](C)O[C@@H](O[C@@H]2[C@@H](C)[C@H](O[C@H]3C[C@@](C)(OC)[C@@H](O)[C@H](C)O3)[C@@H](C)C(=O)O[C@H](CC)[C@@]3(C)OC(=O)N(CCc4ccc(Cl)c(F)c4)[C@@H]3[C@@H](C)C(=O)[C@H](C)C[C@@]2(C)OC)[C@@H]1O [Example 16] ; rat pituitary cells (Rattus norvegicus); reported Kb was 32.4

###

- assay.system: LHRH rat pituitary receptor (Rattus norvegicus, UniProt P30969)
- Construct: from tissue; host or cells: rat pituitary
- protocol.details: LHRH rat pituitary receptor binding (pKI)
- condition.parameters: negative logarithm of the equilibrium dissociation constants, Table 1, read-out: receptor binding affinity (pKI) (converted)
metric.name: Ki (nM)

[a] CC[C@H]1OC(=O)[C@H](C)[C@@H](O[C@H]2C[C@@](C)(OC)[C@@H](O)[C@H](C)O2)[C@H](C)[C@@H](O[C@@H]2O[C@H](C)C[C@H](N(C)CC3CC3)[C@H]2O)[C@](C)(OC)C[C@@H](C)C(=O)[C@H](C)[C@H]2N(CCc3ccc(F)c(F)c3)C(=O)O[C@]12C
[b] CC[C@H]1OC(=O)[C@H](C)[C@@H](O[C@H]2C[C@@](C)(OC)[C@@H](O)[C@H](C)O2)[C@H](C)[C@@H](O[C@@H]2O[C@H](C)C[C@H](N(C)CC3CC3)[C@H]2O)[C@](C)(OC)C[C@@H](C)C(=O)[C@H](C)[C@H]2N(CCc3ccc(Cl)cc3)C(=O)O[C@]12C
[c] CC[C@H]1OC(=O)[C@H](C)[C@@H](O[C@H]2C[C@@](C)(OC)[C@@H](O)[C@H](C)O2)[C@H](C)[C@@H](O[C@@H]2O[C@H](C)C[C@H](N(C)C(C)C)[C@H]2O)[C@](C)(OC)C[C@@H](C)C(=O)[C@H](C)[C@H]2N(CCc3ccc(Cl)cc3)C(=O)O[C@]12C
IN: Ranking by Ki (descending) is requested for the entries above. Provide the ranking by listing each label in its place in the requested order.
OUT: b, c, a
(b: 9.12 nM, c: 4.47 nM, a: 0.676 nM)

###

- assay.system: rat pituitary cells (Rattus norvegicus, UniProt P30969)
- Construct: endogenous in cells; host or cells: rat pituitary cells
- Sequence (P30969 whole entry): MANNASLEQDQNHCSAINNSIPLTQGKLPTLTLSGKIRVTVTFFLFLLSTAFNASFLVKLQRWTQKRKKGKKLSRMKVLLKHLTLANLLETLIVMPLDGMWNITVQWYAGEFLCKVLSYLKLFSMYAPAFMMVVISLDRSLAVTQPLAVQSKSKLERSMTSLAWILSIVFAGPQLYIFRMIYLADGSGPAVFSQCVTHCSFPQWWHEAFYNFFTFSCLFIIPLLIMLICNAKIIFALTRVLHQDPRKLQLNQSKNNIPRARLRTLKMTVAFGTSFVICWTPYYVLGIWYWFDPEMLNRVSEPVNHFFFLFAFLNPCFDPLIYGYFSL
- protocol.details: LH inhibition from rat pituitary cells, antagonist potency (pA2)
- Format: cell-based
- condition.parameters: negative log of antagonist concentration shifting the leuprolide response curve to two-fold higher concentration, Table 2
- Procedure: Representative compounds of the present invention were evaluated in in vitro tests for LHRH rat pituitary receptor binding (pKI) and for LH inhibition from rat pituitary cells for antagonist potency (pA2). The tests employed the methods detailed in F. Haviv, et al. J. Med. Chem., 32: 2340-2344 (1989). The receptor binding affinity (pKI) is the negative logarithm of the equilibrium dissociation constants. […]
metric.name: Kb (nM)
Supply the numeric figure in nM, leaving out any unit text.

The examples below pair each entry with its known result.
compound: CC[C@H]1OC(=O)[C@H](C)[C@@H](O[C@H]2C[C@@](C)(OC)[C@@H](O)[C@H](C)O2)[C@H](C)[C@@H](O[C@@H]2O[C@H](C)C[C@H](N(C)CC3CC3)[C@H]2O)[C@](C)(OC)C[C@@H](C)C(=O)[C@H](C)[C@H]2N(CCc3ccc(F)c(Cl)c3)C(=O)O[C@]12C [Example 29]
unit.text: nM
readout.value: 1.07
//
compound: CC[C@H]1OC(=O)[C@H](C)[C@@H](O[C@H]2C[C@@](C)(OC)[C@@H](O)[C@H](C)O2)[C@H](C)[C@@H](O[C@@H]2O[C@H](C)C[C@H](N(C)C3CCCC3)[C@H]2O)[C@](C)(OC)C[C@@H](C)C(=O)[C@H](C)[C@H]2N(CCc3ccc(Cl)c(Cl)c3)C(=O)O[C@]12C [Example 1]
unit.text: nM
readout.value: 0.794

CCCN(C)[C@H]1C[C@@H](C)O[C@@H](O[C@@H]2[C@@H](C)[C@H](O[C@H]3C[C@@](C)(OC)[C@@H](O)[C@H](C)O3)[C@@H](C)C(=O)O[C@H](CC)[C@@]3(C)OC(=O)N(CCc4cccc(Cl)c4)[C@@H]3[C@@H](C)C(=O)[C@H](C)C[C@@]2(C)OC)[C@@H]1O [Example 25] has a reported Kb of 37.2

###

- assay.system: LHRH rat pituitary receptor (Rattus norvegicus, UniProt P30969)
- Construct: from tissue; host or cells: rat pituitary
- protocol.details: LHRH rat pituitary receptor binding (pKI)
- condition.parameters: negative logarithm of the equilibrium dissociation constants, Table 1, read-out: receptor binding affinity (pKI) (converted)
metric.name: Ki (nM)
Supply the numeric figure in nM, leaving out any unit text.

The examples below pair each entry with its known result.
smiles.notation: CCCN(C)[C@H]1C[C@@H](C)O[C@@H](O[C@@H]2[C@@H](C)[C@H](O[C@H]3C[C@@](C)(OC)[C@@H](O)[C@H](C)O3)[C@@H](C)C(=O)O[C@H](CC)[C@@]3(C)OC(=O)N(CCc4ccc5c(c4)OCCO5)[C@@H]3[C@@H](C)C(=O)[C@H](C)C[C@@]2(C)OC)[C@@H]1O
assay.system: LHRH rat pituitary receptor (Rattus norvegicus, UniProt P30969)
Ki [nM]: 4.07

smiles.notation: CC[C@H]1OC(=O)[C@H](C)[C@@H](O[C@H]2C[C@@](C)(OC)[C@@H](O)[C@H](C)O2)[C@H](C)[C@@H](O[C@@H]2O[C@H](C)C[C@H](N(C)CCCCc3cccc(C)n3)[C@H]2O)[C@](C)(OC)C[C@@H](C)C(=O)[C@H](C)[C@H]2N(CCc3ccc(F)c(Cl)c3)C(=O)O[C@]12C
assay.system: LHRH rat pituitary receptor (Rattus norvegicus, UniProt P30969)
Ki [nM]: 7.08

smiles.notation: CC[C@H]1OC(=O)[C@H](C)[C@@H](O[C@H]2C[C@@](C)(OC)[C@@H](O)[C@H](C)O2)[C@H](C)[C@@H](O[C@@H]2O[C@H](C)C[C@H](N(C)CCCc3ccncc3)[C@H]2O)[C@](C)(OC)C[C@@H](C)C(=O)[C@H](C)[C@H]2N(CCc3ccc(Cl)c(Cl)c3)C(=O)O[C@]12C
assay.system: LHRH rat pituitary receptor (Rattus norvegicus, UniProt P30969)
Ki [nM]: 9.12

smiles.notation: CC[C@H]1OC(=O)[C@H](C)[C@@H](O[C@H]2C[C@@](C)(OC)[C@@H](O)[C@H](C)O2)[C@H](C)[C@@H](O[C@@H]2O[C@H](C)C[C@H](N(C)CCCC(F)(F)F)[C@H]2O)[C@](C)(OC)C[C@@H](C)C(=O)[C@H](C)[C@H]2N(CCc3ccc(F)c(Cl)c3)C(=O)O[C@]12C
assay.system: LHRH rat pituitary receptor (Rattus norvegicus, UniProt P30969)
Ki [nM]: 6.31

smiles.notation: CC[C@H]1OC(=O)[C@H](C)[C@@H](O[C@H]2C[C@@](C)(OC)[C@@H](O)[C@H](C)O2)[C@H](C)[C@@H](O[C@@H]2O[C@H](C)C[C@H](N(C)C(C)C)[C@H]2O)[C@](C)(OC)C[C@@H](C)C(=O)[C@H](C)[C@H]2N(CCc3ccc(F)c(F)c3)C(=O)O[C@]12C
assay.system: LHRH rat pituitary receptor (Rattus norvegicus, UniProt P30969)
Ki [nM]: 3.02

smiles.notation: CC[C@H]1OC(=O)[C@H](C)[C@@H](O[C@H]2C[C@@](C)(OC)[C@@H](O)[C@H](C)O2)[C@H](C)[C@@H](O[C@@H]2O[C@H](C)C[C@H](N(C)C3CCCC3)[C@H]2O)[C@](C)(OC)C[C@@H](C)C(=O)[C@H](C)[C@H]2N(CCc3ccc4c(c3)OCO4)C(=O)O[C@]12C
assay.system: LHRH rat pituitary receptor (Rattus norvegicus, UniProt P30969)
Ki [nM]: 6.31

`CC[C@H]1OC(=O)[C@H](C)[C@@H](O[C@H]2C[C@@](C)(OC)[C@@H](O)[C@H](C)O2)[C@H](C)[C@@H](O[C@@H]2O[C@H](C)C[C@H](N(C)Cc3ccc(CO)o3)[C@H]2O)[C@](C)(OC)C[C@@H](C)C(=O)[C@H](C)[C@H]2N(CCc3ccc(F)c(Cl)c3)C(=O)O[C@]12C` has a reported Ki of 1.15
